Experiment: Solubility of HEVL-absorbing vinylic monomers in 1-propanol
Format: physicochemical
Conditions: organic solvent or mixture, read-out: Solubility in PrOH
measured-metric: solubility

[
  {
    "item-smiles": "C=C(C)C(=O)OCCOCCOc1cc(-n2nc3ccc(Cl)cc3n2)c(O)c(C(C)(C)C)c1",
    "experimental-result": "> 4000 µg/mL"
  }
]
